From: patent US12564600B2

# procedure.summary: Physicochemical properties and ECCS classification of Compound 1
test.readout: solubility (µM)
Expressed in µM, but write only the number.

*Q* Requested read-out: solubility. Entry: O=[P@]1(S)OC[C@H]2O[C@@H]3[C@H](F)[C@@H]2O[P@](=O)(S)OC[C@H]2O[C@H]([C@H](F)[C@@H]2O1)n1cnc2c(ncnc21)NC/C=C/CNc1ncnc2c1ncn23
*A* 150
